# viability per entry
- assay_name: MRP1 drug-resistance reversers in H69AR cells – cell-based, doxorubicin co-treatment, pilot screen (AID 601)
- measurement_setup: H69AR cells + 2 uM doxorubicin, CellTiter-Glo, 72 h; measured here: viability with 2 uM doxorubicin; at 10 µM; stronger effect = lower value
Give the value, in units of %, as a plain number.

CC(C)CCNC(=O)Cn1c(NCCC(C)C)nc2c1c(=O)n(C)c(=O)n2C : 94
COc1ccc(C(=O)Nc2nncs2)c(OC)c1 : 90.5
COc1cccc(C(=O)Nc2cc(C)c3c(=O)oc4ccccc4c3n2)c1 : 101

Given item CCN(CC)C(=O)c1ccc(CS(=O)(=O)c2ccc(OC)cc2)o1 , the value recorded as its viability is 88.7

Quick note, viability for O=C(Nc1ccccc1)c1cnc2n(c1=O)CCS2 landed at 93.5

Notebook: CC(c1ccccc1)n1cnc2ccccc21 (centres undefined) , viability read as 93.3

So for Cc1ccc(C2c3c(oc4ccccc4c3=O)C(=O)N2c2nnc(C(C)C)s2)o1 (centres undefined) , the logged viability turned out to be 14.7

Query CCCCCCn1c(SCC(=O)OC)nc2c1c(=O)[nH]c(=O)n2C yields viability of 70.6

====

- assay_name: S. cerevisiae growth inhibition in restrictive medium, OD615, pilot screen, restrictive growth control, yeast lifespan reduction project (AID 706);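 note: modified DeaD lifespan yeast strain shifted to restrictive glucose medium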
- measurement_setup: OD615, 48 h, at 10 µM
Calls of active or inactive are those of the source.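 The calls were made as follows: active = growth inhibition above a set limit, 3 SD over mean compound inhibition, in both replicates (cut at about 43% in these data); inconclusive = above the limit in only one replicate; inactive = at or below the limit in both replicates.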
Give your call using only these classes: y = active, n = inactive

Previously resolved entries follow.
Cc1ccc(-c2cc(C(F)F)nc(N3CCC(C)CC3)n2)cc1 : n
Cc1cc(=O)oc2cc(OCC(O)CN3CCN(c4ccc(F)cc4)CC3)ccc12 (configuration not stated) : n
COC(=O)CN(c1ccc(OC)cc1)S(=O)(=O)c1ccc(OC)c(OC)c1 : n
O=C(O)CC(C(=O)Nc1cccc(C(F)(F)F)c1)C1CCCO1 (configuration not stated) : n
Cc1ccc(C)c2[nH]c(=O)c(CCNC(=O)c3ccc(S(=O)(=O)N(C)C)cc3)cc12 : n

Data request: // return assay outcome for COc1cccc(NC(=O)C2CCCN(S(=O)(=O)c3cccc4cccnc34)C2)c1 (configuration not stated)
Data returned: n

Data request: Per the assay record, what outcome was assigned to Cn1c(=O)c2c(nc(CN3CCc4ccccc4C3)n2Cc2cccc(Cl)c2)n(C)c1=O ?
Data returned: n

Data request: How was CC1Cc2ccccc2N1C(=O)C12CCC(C)(C(=O)C1)C2(C)C (configuration not stated) classified in this test?
Data returned: n

Data request: // return assay outcome for COc1ccc(NC(=O)c2c(-c3ccccc3)noc2C)c(OC)c1
Data returned: n

Data request: For Cn1c(=O)c2c(nc(CN3CCN(Cc4ccccc4)CC3)n2Cc2cccc(Cl)c2)n(C)c1=O , which call appears in the assay record?
Data returned: n

Data request: Hi, do you know how Fc1ccc(-c2ccc(-c3nn4c(-c5ccco5)nnc4s3)o2)cc1 came out in this test?
Data returned: y

Data request: Test call for this molecule, please: OCCCc1nc2n(n1)C(c1ccccc1)C=C(c1ccccc1)N2 (configuration not stated)
Data returned: n

Data request: Answer briefly: the call reported for CCOC(=O)C(C(=O)OCC)C(C)C#CCN1CCCCC1 (configuration not stated) in this assay.
Data returned: n

Data request: How was COc1cc2c(cc1OC)C(c1ccc(C)o1)CC(=O)N2 (configuration not stated) classified in this test?
Data returned: n

Data request: For this molecule, state the assay outcome: CN(C)CCNc1oc(-c2ccccc2F)nc1C#N
Data returned: n

Data request: Look up the recorded call for CCOC(=O)c1ccc(NC(=O)CC2SC(=NC)N(C)C2=O)cc1 (configuration not stated) in this test.
Data returned: n

Data request: // outcome(item) with item = COc1ccc(NC(=O)CN2C(=O)CC(C)(C)S(=O)(=O)c3ccccc32)cc1
Data returned: n

Data request: In this assay, the call recorded for O=C(CSc1nc(-c2ccco2)cc(C(F)(F)F)n1)NCCCn1ccnc1 was what?
Data returned: n

Data request: How was COc1ccc(C(=O)NCc2nc3ccccc3[nH]2)cc1OC classified in this test?
Data returned: n

Data request: Assay result, entry Cc1ccc(-c2cc(C(F)F)n3ncc(C(=O)N4CCN(c5ccccn5)CC4)c3n2)cc1 — outcome?
Data returned: n

Data request: Status in this test for CCc1ccccc1N1CC23C=CC(O2)C(C(=O)O)C3C1=O (configuration not stated) ?
Data returned: n

Data request: Tell me the recorded outcome of this test for CN1C(=O)C(O)(CC(=O)c2ccccc2O)c2cc(Br)ccc21 (configuration not stated) .
Data returned: n
